test: soluble on expression in E. coli; label from the status in PepcDB or PDB records
measuredProperty: soluble on expression in E. coli

{"sequenceInput": "SVRTACKSRAVSSGKQTGKWQSWSDAGVLTVFECEGLKLILNTWTPIPFSPFPVHHLFTPMLIGRLCGTRIETLALIHGGISLPATALRSPNSGVKLPLLVSPLFPMETTPSALRLLSSHKAESGSPTLFTLVHLLPLLLQ", "result": "soluble"}
{"sequenceInput": "MHCAENCIFCKIIAGDIPSAKVYEDEHVLAFLDISQVTKGHTLVIPKTHIENVYEFTDELAKQYFHAVPKIARAIRDEFEPIGLNTLNNNGEKAGQSVFHYHMHIIPRYGKGDGFGAVWKTHADDYKPEDLQNISSSIAKRLASS", "result": "soluble"}

----------
assay: soluble on expression in E. coli; label from the status in PepcDB or PDB records

{"sequenceInput": "MGSDKIHHHHHHMTEITTLTQFLSTANTQFQVYDLGRRVQHIDMMAFSQIEALQAPYPSPIQGHAQFAIVFWDDSNQHFIWFLKLPLDERGLLSPAPRTQFIRMVIEALGSDPTQALSQDQQDTLANHPFAFKPSAEKLALFNALVRKQLGLPASAQYEFAYQYLSGQVSPERWQDVGLQGLADICVRAAALDHNEQLLNALEHSADEVKIALCQQLEHITLDAPLAERLLSAFYQGSPEQKLYYLRALASAPALAQQAIQYLDEQDALDDNALITIAGRNWTALKDDQTRKIYLEALAKQPQGFFNQIFADIVAIPAIRTQLLMALRDSERSQALANAIGGLFRVTKA", "soluble on expression in E. coli": "not soluble"}
{"sequenceInput": "MSDEESFVILGSSPCSSLMPDSSLRSDVCGNAQEAKETVASTSTQPPTVNCIPVSITASQQQHKSLDSGSSQQQSLATSFIMGEIQSDVLKNSVYSQFPSLCSLQGSAEEVVKLQNMMTEYLALKSQPNHAELPQPDSTMAPGSRRPRTPVQGACERVPSANRDPSRGKPRAEEGPRDENRADLEHHHHHH", "soluble on expression in E. coli": "not soluble"}
{"sequenceInput": "MGSDKIHHHHHHMNRTAVGVDIAKSVFQVHYVDPETGEIVNKPIKRAKFLEFFANRARCLIGMEACGGAQHWARQLMKMGHEIRLMPAEFVKAFNIRNKNDAADARAIWLAVQQPGKPVAVKTEMQQAMLALHRMRRQLVTFRTMQINGLRGLPTEYGEVMGRGRAALDKAIPEVLRRVAERLPAVVIDTLREQWNGLTKLDEQVACIERRMREWKKQDKAVQAISEIPGVGLLTATAAVAMMGDAKAFSSGREFAAWAGLVPKQTGSGGKVNLHGISRRGDTYLRTLLIHGARSVLTHAKDPGPWVEQMKKRRPLNVVVVALANKIARTIWAGTFLRYSYNFP", "soluble on expression in E. coli": "not soluble"}

----------
assay: soluble on expression in E. coli; label from the status in PepcDB or PDB records
measuredProperty: soluble on expression in E. coli

Check out these entries, answers already filled in.
{"sequenceInput": "MGSDKIHHHHHHAMSSCGSTKEAASLSSLNGEWNIIEVNGSAIVPAENQELPFIGFDTATGKVYGNSGCNRMMGSIDLNSKPGTIDMSRLGSTRMACPDMTTEQNVLNALGQVKSYKKLGKHNMALCNASNRPVVVLQKKASDVKLSALNGEWKIEEVNGEAIPSGMEKQPFINFDVRKKSIHGNAGCNLINGGFETDKENPRSISFPNVISTMMACPDMEVEGKVMKAINEVKSFDVLSGGGIGFYSADGTLVMVLVKK", "soluble on expression in E. coli": "not soluble"}
{"sequenceInput": "MLQIIVPMAGAGSRFAVAGYTDPKPLIPVHGVPMIKVVIDNLTPDCPHRFIFICQAEQVAAYGLREKLNAWAPGCGIVELGGLTGGAACTVYAARHLINYDQQVMIANSDQYVDVDINAYLHAMNECDAAGLIMTMKASDPKWSFVGFDSQGHINRVVEKEVISDEATVGIYNFRSGGQLVSAIEAMVLKDLRVNGEFYVAPAYNELIEQGAKVIHYSIGAEGHGMYGLGIPVDLNLFLSLPLSRQAASGVGNLEHHHHHH", "soluble on expression in E. coli": "not soluble"}
{"sequenceInput": "MNTQSLMSSTHTIAASDPHIQVMGRTHINDDASLTFGYPGVSLSTIVAGSRLTAEMQSSNGNSWIDVIIDNHPPTSIKLDAQQQTVELFHFPNSGEHRVEIIHRSENWHGQVTLKQLTLTGTQFLPAPVLPQRKILVLGDSVTCGEAIDRVAGEDKNTRWWNARESYGMLTAKALDAQVQLVCWGGRGLIRSWNGKTDDANLPDFYQFTLGDTGQAPQWDHHRYQPDLIISAIGTNDFSPGIPDRATYINTYTRFVRTLLDNHPQATIVLTEGAILNGDKKAALVSYIGETRQQLHSNRVFYASSSHHPGDNSDAHPTKDQHAAMARELTPQLRQIMDWLEHHHHHH", "soluble on expression in E. coli": "soluble"}
{"sequenceInput": "MGSDKIHHHHHHMPATAYSAIHGRDIRTLKQCPPVVDAMTYGFMVLLPCDVVVDKGTFSWDWQIPEPVTQNHPRAPLSFHTPGQLAGSPFATTGQAALKFNSFWTIEVEDGWSLFATHPVNREDLPFRLVTGLVDSDRFSDGGINFPAVWTEAGFSGVLAKGTPVAQCFAVPRAAPQLEYEVFDEERQASYARTVADVLSTPGVYRKRFRARRGRSTGE", "soluble on expression in E. coli": "not soluble"}
{"sequenceInput": "VKFIADPSGVDVLEEVEVFALGPTEVIVVGRLEFIYHEASDEYLEKFEGKLKKGVWYGTNIAVIFTLYRPAGSMEVDKIILDNTFEEIL", "soluble on expression in E. coli": "not soluble"}
{"sequenceInput": "MNELDGIKQFTTVVADSGDIESIRHYHPQDATTNPSLLLKAAGLSQYEHLIDDAIAWGKKNGKTQEQQVVAACDKLAVNFGAEILKIVPGRVSTEVDARLSFDKEKSIEKARHLVDLYQQQGVEKSRILIKLASTWEGIRAAEELEKEGINCNLTLLFSFAQARACAEAGVFLISPFVGRIYDWYQARKPMDPYVVEEDPGVKSVRNIYDYYKQHHYETIVMGASFRRTEQILALTGCDRLTIAPNLLKELQEKVSPVVRKLIPPSQTFPRPAPMSEAEFRWEHNQDAMAVEKLSEGIRLFAVDQRKLEDLLAAKL", "soluble on expression in E. coli": "soluble"}
{"sequenceInput": "MVQAFEPYIALNSHVRKPVIHISLNPSPKDILSKEQMTVLAQEFMEKFGYGNQPYIVWLHEDIDRKHMHIISVRINEKGEKIDHNREAIRAQNICRDMEVKYGLHSTLGEHSERELLSLQKVDYPKGDVKAQVKHTARTLLECYNCHSLAEYNTLLNLYNVTVYEVRGSVDGKEYYGIMYGALDDDGQQAGTPFKSSKFGKVFGYEALQKKFAATAEKVLEHHHHHH", "soluble on expression in E. coli": "not soluble"}
{"sequenceInput": "MDPKKADIIRLEALPQDLLGGIVAKVGATTAEDFHNCILVCKELGASANDKHVFKTLNLALLVKKPLSGTQTPSYYENMS", "soluble on expression in E. coli": "soluble"}

*Q* Reported soluble on expression in E. coli for MRHILSVLIENESGAMSRVVGLFSARDYNIDSLAVAPTEDKTLSRMTIVTHGDEQVIEQITKQLNKLIEVIKVVDLNESRFVERELMLVKVRAAGKDRDEFLRLTEIYRGSIIDVTDRSYTIEITGSTDKLDSFLETVGRAQILETVRTGAAGIGRGERILKI : what is it?
*A* not soluble

*Q* Look up soluble on expression in E. coli: MGSSHHHHHHGKTIFVIVPTNEEQVAFLEALAKQDELNFDWQNPPTEPGQPVVILIPSDMVEWFLEMLKAKGIPFTVYVEEGGSENLYFQGGGGGGPFRYQISEYFERQRDGVHVELRRKAVKYYAEMERMHRRQALVNLESIQDDNAPHRLSAVLSVESIQAGHLDQEYNYWYAHERDAIRAEKLMMEIRELKAKMPADSA
*A* not soluble
